Entries annotated with measured Emax
# system tested: Protein cereblon/Cyclin-dependent kinase 2 (Homo sapiens, UniProt P24941+Q96SW2)
# test: Protac activity at CRBN/CDK2 in human HL-60 cells assessed as induction of CDK2 degradation by Western blot analysis relative to control
# Type: cell-based

| compound | Emax / % |
| --- | --- |
| O=C1CCC(N2C(=O)c3ccc(N4CCC(C(=O)N5CCN(Cc6ccc(NC(=O)c7n[nH]cc7Nc7ncnc8[nH]ccc78)cc6)CC5)CC4)cc3C2=O)C(=O)N1 (stereo not drawn) | 47.9 |
| O=C1CCC(N2C(=O)c3ccc(N4CCC(CCN5CCC(NC(=O)c6n[nH]cc6NC(=O)c6c(Cl)cccc6Cl)CC5)CC4)cc3C2=O)C(=O)N1 (stereo not drawn) | 54.9 |
| O=C1CCC(N2C(=O)c3ccc(N4CCC(CN5CCC(NC(=O)c6n[nH]cc6NC(=O)c6c(Cl)cccc6Cl)CC5)C4)cc3C2=O)C(=O)N1 (stereo not drawn) | 67.3 |

====

# system tested: Protein cereblon/Cyclin-dependent kinase 2 (Homo sapiens, UniProt P24941+Q96SW2)
# test: Protac activity at CRBN/CDK2 in human HL-60 cells assessed as induction of CDK2 degradation by Western blot analysis
# Type: cell-based
Entries annotated with measured DC50
recorded endpoint: DC50

| compound | result |
| --- | --- |
| O=C1CCC(N2C(=O)c3ccc(N4CCC(CN5CCC(NC(=O)c6n[nH]cc6NC(=O)c6c(Cl)cccc6Cl)CC5)CC4)cc3C2=O)C(=O)N1 (configuration not stated) | 1.17 nM |
| O=C1CCC(N2C(=O)c3ccc(N4CCC(CN5CCC(CN6CCC(NC(=O)c7n[nH]cc7NC(=O)c7c(Cl)cccc7Cl)CC6)CC5)CC4)cc3C2=O)C(=O)N1 (configuration not stated) | > 100 nM |
| O=C1CCC(N2C(=O)c3ccc(N4CC(C(=O)N5CCC(NC(=O)c6n[nH]cc6NC(=O)c6c(Cl)cccc6Cl)CC5)C4)cc3C2=O)C(=O)N1 (configuration not stated) | > 100 nM |
| O=C1CCC(N2C(=O)c3ccc(N4CCC(CN5CCC(CCN6CCC(NC(=O)c7n[nH]cc7NC(=O)c7c(Cl)cccc7Cl)CC6)CC5)CC4)cc3C2=O)C(=O)N1 (configuration not stated) | > 100 nM |
| O=C1CCC(N2C(=O)c3ccc(N4CCC(C(=O)N5CCC(N6CCC(NC(=O)c7n[nH]cc7NC(=O)c7c(Cl)cccc7Cl)CC6)CC5)CC4)cc3C2=O)C(=O)N1 (configuration not stated) | > 100 nM |
| O=C1CCC(N2C(=O)c3ccc(N4CCC(CN5CCC(NC(=O)c6n[nH]cc6NC(=O)c6c(Cl)cccc6Cl)CC5)C4)cc3C2=O)C(=O)N1 (configuration not stated) | 4.71 nM |
| O=C1CCC(N2C(=O)c3ccc(N4CCC(CN5CCC(N6CCC(NC(=O)c7n[nH]cc7NC(=O)c7c(Cl)cccc7Cl)CC6)CC5)CC4)cc3C2=O)C(=O)N1 (configuration not stated) | > 100 nM |
| O=C1CCC(N2C(=O)c3ccc(N4CCC(CN5CCC(CCN6CCC(NC(=O)c7n[nH]cc7NC(=O)c7c(Cl)cccc7Cl)CC6)CC5)C4)cc3C2=O)C(=O)N1 (configuration not stated) | > 100 nM |
| O=C1CCC(N2C(=O)c3ccc(N4CCC(CN5CCC(CN6CCC(NC(=O)c7n[nH]cc7NC(=O)c7c(Cl)cccc7Cl)CC6)CC5)C4)cc3C2=O)C(=O)N1 (configuration not stated) | > 100 nM |
| O=C1CCC(N2C(=O)c3ccc(N4CC(CN5CCC(CN6CCC(NC(=O)c7n[nH]cc7NC(=O)c7c(Cl)cccc7Cl)CC6)CC5)C4)cc3C2=O)C(=O)N1 (configuration not stated) | > 100 nM |
| O=C1CCC(N2C(=O)c3ccc(N4CCC(CN5CCN(Cc6ccc(NC(=O)c7n[nH]cc7Nc7ncnc8[nH]ccc78)cc6)CC5)C4)cc3C2=O)C(=O)N1 (configuration not stated) | 1.63 nM |
| O=C1CCC(N2C(=O)c3ccc(N4CC(CN5CCC(CCN6CCC(NC(=O)c7n[nH]cc7NC(=O)c7c(Cl)cccc7Cl)CC6)CC5)C4)cc3C2=O)C(=O)N1 (configuration not stated) | 11.2 nM |
